biological target: recombinant human IL-13 (human, UniProt P35225 35-146); assay: cell-based or functional assay
Sequence (P35225 35-146 limits assumed): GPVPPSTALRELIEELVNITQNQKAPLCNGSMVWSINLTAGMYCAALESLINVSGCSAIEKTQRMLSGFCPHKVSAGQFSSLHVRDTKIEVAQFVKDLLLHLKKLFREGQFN
Parameter: IC50 CD23 (nM)

Binder	Unit Info	Observed Result
BDG38.139 (antibody, V domains shown, IgG1) VH: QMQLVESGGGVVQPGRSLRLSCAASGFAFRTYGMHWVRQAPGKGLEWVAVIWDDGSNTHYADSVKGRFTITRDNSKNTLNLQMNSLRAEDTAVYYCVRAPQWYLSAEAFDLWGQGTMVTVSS VL: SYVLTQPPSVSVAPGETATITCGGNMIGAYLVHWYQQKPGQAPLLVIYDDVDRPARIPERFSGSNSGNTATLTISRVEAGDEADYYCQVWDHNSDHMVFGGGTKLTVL	nM	0.012

The measurements presented in this section are drawn from patent US20240059769A1.
